Origin of measurements: patent US20230365711A1

Tested target: T1, huNABA-avi-his (hybrid protein N-A1-B3-A2: N and A1 domains of human BGP, B3 domain of human CEA, A2 domain … (human, biotinylated at the avi tag (in vivo, co-transfected biotin ligase)))
T1 construct: also called NABA-avi-his reagent; biotinylated NABA
T1 chain: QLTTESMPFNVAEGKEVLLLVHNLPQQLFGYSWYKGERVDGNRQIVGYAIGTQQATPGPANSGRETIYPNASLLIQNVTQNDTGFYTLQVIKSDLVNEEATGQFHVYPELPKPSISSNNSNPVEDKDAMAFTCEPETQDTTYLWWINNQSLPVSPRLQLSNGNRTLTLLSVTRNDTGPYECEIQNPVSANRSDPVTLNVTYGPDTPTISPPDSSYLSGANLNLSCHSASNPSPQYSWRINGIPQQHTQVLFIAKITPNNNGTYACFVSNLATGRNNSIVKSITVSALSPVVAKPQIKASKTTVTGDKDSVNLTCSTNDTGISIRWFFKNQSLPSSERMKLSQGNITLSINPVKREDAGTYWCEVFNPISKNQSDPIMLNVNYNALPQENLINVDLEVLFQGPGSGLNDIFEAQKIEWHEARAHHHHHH
Test description: Biacore on immobilized NABA-avi-his; Bivalent Affinity
Catalogue of Kd values
Report the figure in nM without appending any unit label.

Below, 2 binders whose answers are already recorded.
1C8 x 3A1 (antibody, V domains shown, bivalent form) VH: QVQLVQSGSELKKPGASVKVSCKASGYTFTEFGMNWVRQAPGQGLEWMGWINTKTGEATYVEEFKGRFVFSLDTSVSTAYLQISSLKAEDTAVYYCARWDFYHYVEAMDYWGQGTTVTVSS VL: DIQMTQSPSSLSASVGDRVTITCKASANVGNNVAWYQQKPGKAPKLLIYLASNRSGGVPSRFSGSGSGTDFTLTISSLQPEDFATYYCHQYYTYPLFTFGQGTKLEIK | 0.888
H3 Full (5) 8 x 2F1 (antibody, V domains shown, bivalent form; copies: 2 + 2) VH: QVQLVQSGSELKKPGASVKVSCKASGYTFTEFGMNWVRQAPGQGLEWMGWINTKTGEATYVEEFKGRFVFSLDTSVSTAYLQISSLKAEDTAVYYCARWDFFEYFKTMDYWGQGTTVTVSS VL: DIQMTQSPSSLSASVGDRVTITCKASAAVGTYVAWYQQKPGKAPKLLIYSASYRKRGVPSRFSGSGSGTDFTLTISSLQPEDFATYYCHQYYTYPLFTFGQGTKLEIK | 0.28

Measured Kd of 3A1 (bivalent) (antibody, V domains shown, bivalent form of the clone) VH: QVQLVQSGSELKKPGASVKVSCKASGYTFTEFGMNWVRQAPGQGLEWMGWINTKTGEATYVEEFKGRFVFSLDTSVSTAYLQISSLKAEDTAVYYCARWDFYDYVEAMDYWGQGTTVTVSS VL: DIQMTQSPSSLSASVGDRVTITCKASANVGNNVAWYQQKPGKAPKLLIYLASNRSGGVPSRFSGSGSGTDFTLTISSLQPEDFATYYCHQYYTYPLFTFGQGTKLEIK : 1.5
